test: viability loss of HPDE-C7K cells – cell-based, fluorescence, HTS, primary screen (AID 431);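 note: 0% = DMSO solvent wells and 100% = doxorubicin-treated wells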
conditions-used: HPDE-C7K KRASV12 cells, Alamar Blue viability, 48 h; at 10 µM; hits give high values
About 1,100 (1.7%) of roughly 63,000 compounds were called active. The full list was thinned out, with actives kept by preference. Potency and affinity values are given separately.
Can you tell me cytotoxicity for the items I'm about to list?
Numbers only, in %.

compound	readout	numeric-readout
Cc1cc2nc(C(F)(F)F)[nH]c(=O)n2n1	cytotoxicity	2.8

Could you tell me cytotoxicity for each of these compounds? They are listed below.
1. COc1ccc(N2CCN(C(=O)c3ccc(-n4nc(C)cc4C)cc3)CC2)cc1
2. CC(C)c1nc(SCc2c(F)cccc2Cl)c2c(=O)n(C)c(=O)n(C)c2n1

1: 2.6; 2: 70.4

Hey, quick one: what's cytotoxicity for each of these?
1. CNc1cc(C)nc(-n2nc(C)cc2C)n1
2. Cc1cccc(NC(=O)c2cc3c(n(-c4ccccc4)c2=O)CCCC3=O)n1
3. CC(=O)c1ccc(Oc2cc(C)nc(-n3nc(C)cc3C)n2)cc1
4. CC1N=C2c3ccccc3N=C(SCc3cc(=O)n4cc(Cl)ccc4n3)N2C1=O (stereo not given)
5. COc1ccc(-c2nnn(CC(=O)c3ccc4c(c3)OCCO4)n2)cc1OC
6. CCN(C(=O)COc1ncnc2ccc(Br)cc12)C1CCS(=O)(=O)C1 (stereo not given)

1. -14.9
2. 20
3. 56.4
4. 5.7
5. 0.3
6. -5.5

Requested read-out: cytotoxicity. Entry: COc1ccc(-n2c3c(cc(C(=O)Nc4ccc5c(c4)C(=O)NC5=O)c2=O)C(=O)CCC3)cc1
61.2

* * *

test: viability loss of HPDE-C7K cells – cell-based, fluorescence, HTS, primary screen (AID 431);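 note: 0% = DMSO solvent wells and 100% = doxorubicin-treated wells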
conditions-used: HPDE-C7K KRASV12 cells, Alamar Blue viability, 48 h; at 10 µM; hits give high values
Hit rate of the full screen: of about 63,000 compounds, about 1,100 (1.7%) were called active. The sample as a whole holds a higher share of actives than the screen did. Potency and affinity values are given separately.
Assign cytotoxicity to each entry below.
Give bare numbers, in %.

compound	numeric-readout
CCS(=O)(=O)N1CCCC(C(=O)NCc2ccccc2Cl)C1 (stereo unspecified)	14.1
COc1ccc(N(CC(=O)Nc2ccc(C)cn2)S(=O)(=O)c2c(C)noc2C)cc1	-11.9

For each of the compounds below, state cytotoxicity.
1. Cc1c(NC(=O)COC(=O)C2CC3C=CC2C3)c(=O)n(-c2ccccc2)n1C (stereo unspecified)
2. COc1ccc(-c2oc3ncnc(NCCCN4CCOCC4)c3c2-c2ccc(OC)cc2)cc1
3. Cc1nnc(SCc2cc(=O)[nH]c(Nc3nc(C)c4ccccc4n3)n2)s1
4. O=C(CSc1nc2ccccc2o1)Nc1ccccc1
5. c1ccc(-c2oc3ncnc(NCCCn4ccnc4)c3c2-c2ccccc2)cc1
6. CCOC(=O)c1nn(-c2ccccc2)c(=O)c(C#N)c1C

1. -2.3
2. 107
3. 3.9
4. -14.6
5. 17.3
6. 0.8

Dear reader, for each entry below, please note its cytotoxicity.
1. c1ccc(-c2oc3ncnc(NCCN4CCOCC4)c3c2-c2ccccc2)cc1
2. N=c1c2c(-c3ccccc3)c(-c3ccccc3)oc2ncn1CCCN1CCOCC1
3. CCCCCc1c(C)nc(Nc2nc(C)c3cc(OC)ccc3n2)[nH]c1=O
4. COc1cccc(C2=Nn3c(nnc3-c3ccccc3O)SC2)c1
5. Cc1nc(-c2ccccc2)cc(=O)[nH]1
6. CC1CN(S(=O)(=O)c2cn(C)c(=O)n(C)c2=O)CC(C)O1 (stereo unspecified)
7. COc1nc(Nc2nc3ccccc3c(=O)[nH]2)nc2ccc(C)cc12

[42, 55.5, 9.7, -11.6, 6.9, 14.8, 91.7]

The following compounds each have a reported value; give each one's cytotoxicity.
1. Cc1ccc(SCc2nc(-c3ccccc3)no2)cc1
2. COc1ccccc1-c1nnc2n1N=C(c1ccc(O)c(O)c1)CS2
3. COc1ccc(C2/C(=C(/O)c3ccc(C)cc3)C(=O)C(=O)N2C)cc1 (stereo unspecified)
4. O=C(CCN1CCCC1)Nc1cccc(Br)c1

1: -10.8; 2: 54.8; 3: -6.1; 4: 3.2

Provide cytotoxicity values for the following items, in order.
1. CCCC(C(=O)NC1CCCC1)N(C(=O)Cn1nnc(-c2ccc(C)o2)n1)C1CCCC1 (stereo unspecified)
2. Cc1nc(Nc2nc(-c3ccccc3)cc(=O)[nH]2)nc2ccccc12
3. COCc1cc(=O)[nH]c(Nc2nc(C)c3ccc(C)cc3n2)n1
4. N#Cc1c(NC(=O)CN2CCOCC2)oc(-c2ccccc2)c1-c1ccccc1

[-0.4, 68.2, 2.4, 10.6]
